For each of the compounds below, state its IC50.
target: JAK2-JH1JH2 (Homo sapiens (Human))
Sequence (O60674 532-1132): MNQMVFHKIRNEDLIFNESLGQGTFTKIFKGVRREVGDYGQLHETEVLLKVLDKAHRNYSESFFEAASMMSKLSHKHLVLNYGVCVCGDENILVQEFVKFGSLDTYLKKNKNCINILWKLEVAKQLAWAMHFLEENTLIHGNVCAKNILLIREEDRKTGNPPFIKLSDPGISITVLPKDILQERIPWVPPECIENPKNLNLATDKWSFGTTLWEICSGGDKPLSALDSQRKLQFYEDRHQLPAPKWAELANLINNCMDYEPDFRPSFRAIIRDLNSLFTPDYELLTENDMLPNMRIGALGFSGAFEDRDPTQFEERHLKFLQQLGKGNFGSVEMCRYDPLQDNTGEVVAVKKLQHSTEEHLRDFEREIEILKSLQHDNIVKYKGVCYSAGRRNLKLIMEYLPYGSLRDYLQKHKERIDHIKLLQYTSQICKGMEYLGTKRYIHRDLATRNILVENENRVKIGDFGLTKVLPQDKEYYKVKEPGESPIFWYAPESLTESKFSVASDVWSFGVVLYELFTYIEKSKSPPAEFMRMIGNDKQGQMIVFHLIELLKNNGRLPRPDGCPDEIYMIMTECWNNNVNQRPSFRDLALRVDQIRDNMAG
Please state the figure in nM; there is no need to write the unit.

What value of IC50 has been reported for the following compound? N#CC[C@H]1CC[C@H](n2c(CC(=O)N[C@H]3CC[C@H](O)CC3)nc3cnc4[nH]ccc4c32)CC1 [Ex. 33]
2.3

What value of IC50 has been reported for the following compound? N#CC[C@H]1CC[C@H](n2c(-c3cnn(Cc4cocn4)c3)nc3cnc4[nH]ccc4c32)CC1 [Ex. 166]
17

What value of IC50 has been reported for the following compound? N#CC[C@H]1CC[C@H](n2c(C(=O)NC3CC3)nc3cnc4[nH]ccc4c32)CC1 [Ex. 175]
27.8

What value of IC50 has been reported for the following compound? CC(C)(O)CNC(=O)Cc1nc2cnc3[nH]cc(F)c3c2n1[C@H]1CC[C@H](CC#N)CC1 [Ex. 132]
13.8

These measurements were taken from patent US10981911B2.
